Quick list: pEC50 per entry.
subjectOfTest: α1β1 GABAA receptors (Rattus norvegicus, UniProt P15431+P62813)
Construct: expressed in transfected cells; host or cells: Xenopus laevis oocytes, mRNA injected
Sequence (P15431 26-474, one chain of several): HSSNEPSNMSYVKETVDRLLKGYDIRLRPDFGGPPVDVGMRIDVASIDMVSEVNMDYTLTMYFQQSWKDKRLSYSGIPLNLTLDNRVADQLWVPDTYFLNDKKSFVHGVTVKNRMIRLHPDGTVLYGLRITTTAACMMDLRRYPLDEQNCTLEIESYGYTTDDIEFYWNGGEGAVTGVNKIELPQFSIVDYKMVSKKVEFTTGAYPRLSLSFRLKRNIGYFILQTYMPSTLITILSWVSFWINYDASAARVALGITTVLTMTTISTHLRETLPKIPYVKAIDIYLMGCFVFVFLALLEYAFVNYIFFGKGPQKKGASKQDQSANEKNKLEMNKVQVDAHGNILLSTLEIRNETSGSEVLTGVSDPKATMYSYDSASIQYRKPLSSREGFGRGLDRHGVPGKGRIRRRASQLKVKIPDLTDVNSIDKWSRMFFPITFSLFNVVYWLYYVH
methodDescription: Two electrode voltage clamp in Xenopus laevis oocytes, α1β1
Format: cell-based
testContext: α1β1 (α1+/β1− interface); read-out: EC50
pEC50: −log10 of the molar value.

Examples with their reported pEC50 follow.
COc1ccc(-n2nc3c4cc(OC)ccc4[nH]cc-3c2=O)cc1 [Compound 4]; ~6.70
COc1ccc(-n2nc3c4cc(Cl)ccc4[nH]cc-3c2=O)cc1 [Compound 1]; 6.89

# next compound below
Briefly, pEC50 measured for Nc1ccc(-n2nc3c4cc(Cl)ccc4[nH]cc-3c2=O)cc1 [Compound 3] : ~6.70

---

subjectOfTest: α1β1R41N GABAA receptors (Rattus norvegicus, UniProt P15431+P62813, R66N)
Construct: expressed in transfected cells; host or cells: Xenopus laevis oocytes, mRNA injected
Sequence (P62813 28-455): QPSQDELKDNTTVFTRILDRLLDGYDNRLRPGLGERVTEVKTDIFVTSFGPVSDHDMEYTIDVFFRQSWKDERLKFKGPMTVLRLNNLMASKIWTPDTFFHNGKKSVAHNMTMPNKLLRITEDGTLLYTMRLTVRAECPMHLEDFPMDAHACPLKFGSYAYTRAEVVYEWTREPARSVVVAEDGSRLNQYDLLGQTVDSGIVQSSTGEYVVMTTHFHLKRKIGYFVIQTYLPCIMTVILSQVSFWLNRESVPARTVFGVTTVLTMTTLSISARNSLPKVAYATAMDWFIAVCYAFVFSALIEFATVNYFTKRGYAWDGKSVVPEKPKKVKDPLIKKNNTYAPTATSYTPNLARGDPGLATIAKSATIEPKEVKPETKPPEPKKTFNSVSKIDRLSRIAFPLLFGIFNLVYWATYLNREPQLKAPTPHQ
Sequence (P15431 26-474 R66N): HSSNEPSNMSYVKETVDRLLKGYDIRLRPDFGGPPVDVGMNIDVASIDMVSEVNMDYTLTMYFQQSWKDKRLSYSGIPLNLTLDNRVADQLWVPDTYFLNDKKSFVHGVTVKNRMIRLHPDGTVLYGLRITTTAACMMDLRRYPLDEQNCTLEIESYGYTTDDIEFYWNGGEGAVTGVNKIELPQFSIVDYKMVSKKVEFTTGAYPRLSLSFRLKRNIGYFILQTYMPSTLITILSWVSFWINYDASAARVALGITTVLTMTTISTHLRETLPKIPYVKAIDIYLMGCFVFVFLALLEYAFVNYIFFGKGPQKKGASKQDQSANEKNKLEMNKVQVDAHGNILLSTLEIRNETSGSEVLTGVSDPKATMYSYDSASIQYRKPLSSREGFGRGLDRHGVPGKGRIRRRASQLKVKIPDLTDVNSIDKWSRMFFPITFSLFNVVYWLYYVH
methodDescription: Two electrode voltage clamp in Xenopus laevis oocytes, mutant α1β1R41N
Assay type: cell-based
testContext: 1μM, read-out: % of control current at EC3-5
Quick list: current as % of control at 1 µM per entry.
Field format: number, assumed %, no unit text.

Nc1ccc(-n2nc3c4cc(Cl)ccc4[nH]cc-3c2=O)cc1; 85

α1β1R41N GABAA receptors (Rattus norvegicus, UniProt P15431+P62813, R66N) data for COc1ccc2[nH]cc3c(=O)n(-c4ccc(N)cc4)nc-3c2c1 ; its current as % of control at 1 µM: 90

α1β1R41N GABAA receptors (Rattus norvegicus, UniProt P15431+P62813, R66N) data for COc1ccc2[nH]cc3c(=O)n(-c4ccc(C)cc4)nc-3c2c1 ; its current as % of control at 1 µM: 100

α1β1R41N GABAA receptors (Rattus norvegicus, UniProt P15431+P62813, R66N) data for COc1ccc(-n2nc3c4cc(Cl)ccc4[nH]cc-3c2=O)cc1 ; its current as % of control at 1 µM: 140

α1β1R41N GABAA receptors (Rattus norvegicus, UniProt P15431+P62813, R66N) data for Cc1ccc(-n2nc3c4cc(Cl)ccc4[nH]cc-3c2=O)cc1 ; its current as % of control at 1 µM: 62

α1β1R41N GABAA receptors (Rattus norvegicus, UniProt P15431+P62813, R66N) data for COc1ccc(-n2nc3c4cc(OC)ccc4[nH]cc-3c2=O)cc1 ; its current as % of control at 1 µM: 110

---

subjectOfTest: α1β3 GABAA receptors (Rattus norvegicus, UniProt P62813+P63079)
Construct: expressed in transfected cells; host or cells: Xenopus laevis oocytes, mRNA injected
Sequence (P62813 28-455): as the sequence (P62813 28-455) above
Sequence (P63079 26-473): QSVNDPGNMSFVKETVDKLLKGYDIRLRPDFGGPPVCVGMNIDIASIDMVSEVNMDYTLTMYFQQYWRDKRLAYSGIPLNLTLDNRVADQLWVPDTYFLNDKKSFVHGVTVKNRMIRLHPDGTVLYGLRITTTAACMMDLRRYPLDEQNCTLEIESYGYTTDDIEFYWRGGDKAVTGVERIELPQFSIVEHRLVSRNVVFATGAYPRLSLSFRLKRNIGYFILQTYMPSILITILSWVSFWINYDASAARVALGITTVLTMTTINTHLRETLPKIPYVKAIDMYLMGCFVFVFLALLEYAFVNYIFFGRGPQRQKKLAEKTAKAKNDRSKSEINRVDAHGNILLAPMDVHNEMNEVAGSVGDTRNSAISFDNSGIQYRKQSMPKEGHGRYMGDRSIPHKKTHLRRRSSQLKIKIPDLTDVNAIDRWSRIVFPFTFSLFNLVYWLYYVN
methodDescription: Two electrode voltage clamp in Xenopus laevis oocytes, α1β3
Format: cell-based
testContext: α1β3; co-applied with GABA EC3-5; read-out: EC50
Quick list: EC50 per entry.
Field format: number, assumed µM, no unit text.

Examples with their reported EC50 follow.
COc1ccc(-n2nc3c4cc(Cl)ccc4[nH]cc-3c2=O)cc1; 1.84
COc1ccc(-n2nc3c4cc(OC)ccc4[nH]cc-3c2=O)cc1; 3.13
Cc1ccc(-n2nc3c4cc(Cl)ccc4[nH]cc-3c2=O)cc1; 2.39

# next molecule below
Briefly, EC50 measured for COc1ccc2[nH]cc3c(=O)n(-c4ccc(C)cc4)nc-3c2c1 : 3.49

---

subjectOfTest: α1β1 GABAA receptors (Rattus norvegicus, UniProt P15431+P62813)
Construct: expressed in transfected cells; host or cells: Xenopus laevis oocytes, mRNA injected
methodDescription: Two electrode voltage clamp in Xenopus laevis oocytes, α1β1
Format: cell-based
testContext: read-out: efficacy, % of control current (GABA EC3-5 = 100%); α1β1; 300 nM
We label by threshold. Values of activity at 0.3 µM strictly beneath 300% are Fulfilled. Values of 300% and up are Not fulfilled.

Cc1ccc(-n2nc3c4cc(Cl)ccc4[nH]cc-3c2=O)cc1; Fulfilled

## Task Strictly below 300% in activity at 0.3 µM? COc1ccc2[nH]cc3c(=O)n(-c4ccc(N)cc4)nc-3c2c1
## Result Fulfilled

## Task Strictly below 300% in activity at 0.3 µM? COc1ccc(-n2nc3c4cc(OC)ccc4[nH]cc-3c2=O)cc1
## Result Not fulfilled

---

Quick list: Hill slope (nH) per entry.
subjectOfTest: α1β1 GABAA receptors (Rattus norvegicus, UniProt P15431+P62813)
Construct: expressed in transfected cells; host or cells: Xenopus laevis oocytes, mRNA injected
methodDescription: Two electrode voltage clamp in Xenopus laevis oocytes, α1β1
Type: cell-based
testContext: α1β1
Please reply with the number alone, leaving off any unit.

Nc1ccc(-n2nc3c4cc(Cl)ccc4[nH]cc-3c2=O)cc1 [Compound 3]; 1.0
COc1ccc2[nH]cc3c(=O)n(-c4ccc(N)cc4)nc-3c2c1 [Compound 6]; 1.3

Briefly, Hill slope (nH) measured for COc1ccc(-n2nc3c4cc(OC)ccc4[nH]cc-3c2=O)cc1 [Compound 4] : 1.8

Briefly, Hill slope (nH) measured for Cc1ccc(-n2nc3c4cc(Cl)ccc4[nH]cc-3c2=O)cc1 [Compound 2] : 1.0

Briefly, Hill slope (nH) measured for COc1ccc2[nH]cc3c(=O)n(-c4ccc(C)cc4)nc-3c2c1 [Compound 5] : 1.0

Briefly, Hill slope (nH) measured for COc1ccc(-n2nc3c4cc(Cl)ccc4[nH]cc-3c2=O)cc1 [Compound 1] : 1.3

---

subjectOfTest: α1β3γ2 GABAA receptors (Rattus norvegicus, UniProt P62813+P63079)
Construct: expressed in transfected cells; host or cells: Xenopus laevis oocytes, mRNA injected
Sequence (P62813 28-455): as the sequence (P62813 28-455) above
Sequence (P63079 26-473): as the sequence (P63079 26-473) above
Sequence (P18508 39-466 partner): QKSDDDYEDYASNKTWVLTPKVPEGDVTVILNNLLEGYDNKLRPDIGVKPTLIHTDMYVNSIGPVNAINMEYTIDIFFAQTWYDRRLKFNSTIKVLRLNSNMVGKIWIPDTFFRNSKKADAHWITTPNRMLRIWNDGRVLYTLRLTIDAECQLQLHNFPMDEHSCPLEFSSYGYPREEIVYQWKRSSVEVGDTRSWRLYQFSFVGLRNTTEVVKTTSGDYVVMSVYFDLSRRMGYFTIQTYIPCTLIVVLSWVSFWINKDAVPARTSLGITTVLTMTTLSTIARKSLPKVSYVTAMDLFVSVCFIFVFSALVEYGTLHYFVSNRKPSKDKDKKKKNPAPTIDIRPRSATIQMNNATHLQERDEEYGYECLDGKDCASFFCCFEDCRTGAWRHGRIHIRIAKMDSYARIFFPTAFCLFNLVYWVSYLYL
methodDescription: Two electrode voltage clamp in Xenopus laevis oocytes, α1β3γ2
Type: cell-based
testContext: co-applied with GABA EC3-5, read-out: EC50
quantityMeasured: EC50 (nM)
Field format: number, assumed nM, no unit text.

Briefly, EC50 measured for Cc1ccc(-n2nc3c4cc(Cl)ccc4[nH]cc-3c2=O)cc1 : 4400

---

subjectOfTest: α1β1R41N GABAA receptors (Rattus norvegicus, UniProt P15431+P62813, R66N)
Construct: expressed in transfected cells; host or cells: Xenopus laevis oocytes, mRNA injected
methodDescription: Two electrode voltage clamp in Xenopus laevis oocytes, mutant α1β1R41N
Format: cell-based
testContext: 3µM, read-out: % of control current at EC3-5
quantityMeasured: current as % of control at 3 µM
Write the figure, then the unit, nothing else.

Examples with their reported current as % of control at 3 µM follow.
COc1ccc(-n2nc3c4cc(OC)ccc4[nH]cc-3c2=O)cc1; 150%
COc1ccc2[nH]cc3c(=O)n(-c4ccc(N)cc4)nc-3c2c1; 90%
COc1ccc2[nH]cc3c(=O)n(-c4ccc(C)cc4)nc-3c2c1; 120%
Cc1ccc(-n2nc3c4cc(Cl)ccc4[nH]cc-3c2=O)cc1; 60%
Nc1ccc(-n2nc3c4cc(Cl)ccc4[nH]cc-3c2=O)cc1; 100%

# next compound below
Briefly, current as % of control at 3 µM measured for COc1ccc(-n2nc3c4cc(Cl)ccc4[nH]cc-3c2=O)cc1 : 195%

---

Quick list: current as % of control at 30 µM per entry.
subjectOfTest: α1β1R41N GABAA receptors (Rattus norvegicus, UniProt P15431+P62813, R66N)
Construct: expressed in transfected cells; host or cells: Xenopus laevis oocytes, mRNA injected
methodDescription: Two electrode voltage clamp in Xenopus laevis oocytes, mutant α1β1R41N
Assay type: cell-based
testContext: 30μM, read-out: % of control current at EC3-5
Field format: number, assumed %, no unit text.

Cc1ccc(-n2nc3c4cc(Cl)ccc4[nH]cc-3c2=O)cc1 [Compound 2]; 60

Briefly, current as % of control at 30 µM measured for Nc1ccc(-n2nc3c4cc(Cl)ccc4[nH]cc-3c2=O)cc1 [Compound 3] : 110

Briefly, current as % of control at 30 µM measured for COc1ccc2[nH]cc3c(=O)n(-c4ccc(C)cc4)nc-3c2c1 [Compound 5] : 160

Briefly, current as % of control at 30 µM measured for COc1ccc(-n2nc3c4cc(OC)ccc4[nH]cc-3c2=O)cc1 [Compound 4] : 140

Briefly, current as % of control at 30 µM measured for COc1ccc2[nH]cc3c(=O)n(-c4ccc(N)cc4)nc-3c2c1 [Compound 6] : 115

Briefly, current as % of control at 30 µM measured for COc1ccc(-n2nc3c4cc(Cl)ccc4[nH]cc-3c2=O)cc1 [Compound 1] : 150
